# credit: patent US12559750B2

system: AMPA-R; assay: [3H]AMPA radioligand binding assay on rat brain synaptic membranes; conditions: Experiment #2, 0.1 uM
reported-property: % Inhibition @ 0.1 uM (%)

These recorded examples may help you get a feel for the data.
{"sequence-input": "ASGSCMAFCFUFUMUSUS [RG-NG-1017]", "unit-spec": "%", "% Inhibition @ 0.1 uM": 0.2}
{"sequence-input": "ASGSCMAFCFUFUMUS [RG-NG-1014]", "unit-spec": "%", "% Inhibition @ 0.1 uM": 14.9}

[a] ASGSCSAFCFUFUMUSCS [RG-NG-1027]
[b] ASGSCMAFCFUFUMUSCS [RG-NG-1016]
[c] ASASGSCMAFCFUFUMUS [RG-NG-1013]
[d] AEGECMAFCFUFUMUSGS [RG-NG-1010]
INPUT: Arrange these 4 sequences in increasing order of % Inhibition @ 0.1 uM. Output the labels ranked as instructed.
OUTPUT: c, a, d, b

---

test system: AMPA-R; test: [3H]AMPA radioligand binding assay on rat brain synaptic membranes; details: Experiment #1, 10 uM
reported-property: % Inhibition @ 10 uM (%)

{"sequence-input": "ASGSCMASCMUSUMUSGS [RG-NG-1003]", "unit-spec": "%", "% Inhibition @ 10 uM": 56.9}
{"sequence-input": "USASAMGCSASCSUMUMUSGS (antisense UAAGCACUUUG; cEt at 1, 2, 5, 6, 7, 10, 11, 2'-O-methyl at 3, 8, 9, other sugars and backbone not given here) [RG-NG-1005]", "unit-spec": "%", "% Inhibition @ 10 uM": 0.8}
{"sequence-input": "ASCSAMAFUFGFCMASCS [RG5124, reference compound]", "unit-spec": "%", "% Inhibition @ 10 uM": "−3.7"}
{"sequence-input": "ASGSCSASCSUSUSUSGS [RG-NG-1001]", "unit-spec": "%", "% Inhibition @ 10 uM": 89.1}
{"sequence-input": "ALGLCLALCLTLTLTLGL [RG-NG-1006]", "unit-spec": "%", "% Inhibition @ 10 uM": 68.9}
{"sequence-input": "ASGSCMAFCFUFUMUSGS [RGLS4326, reference compound]", "unit-spec": "%", "% Inhibition @ 10 uM": 93}

[A] ASGSCSASCSUSUSUS [RG-NG-1002]
[B] USASASGSCSASCSUSUSUSGS [RG-NG-1004]
INPUT: Could you point out whether the larger % Inhibition @ 10 uM belongs to A or to B ? Returns: label corresponding to the selected item.
OUTPUT: B
(B: 44.2%, A: −16.9%)

---

tested on: AMPA-R; assay: [3H]AMPA radioligand binding assay on rat brain synaptic membranes; conditions: Experiment #2, 100 uM
reported-property: % Inhibition @ 100 uM (%)

{"sequence-input": "AMAMGLCLALCLUMTLUM [RG-NG-1031]", "target-or-system": "AMPA-R", "unit-spec": "%", "% Inhibition @ 100 uM": 16.7}
{"sequence-input": "ASGLCMAFCFUFUMTLGS [RG-NG-1012]", "target-or-system": "AMPA-R", "unit-spec": "%", "% Inhibition @ 100 uM": 88.3}
{"sequence-input": "ASGSCSASCSUSUSUSGS [RG-NG-1001]", "target-or-system": "AMPA-R", "unit-spec": "%", "% Inhibition @ 100 uM": 93.5}
{"sequence-input": "ASCSAMAFUFGFCMASCS [RG5124, reference compound]", "target-or-system": "AMPA-R", "unit-spec": "%", "% Inhibition @ 100 uM": 7.2}

[A] AEGECMAFCFUFUMTEGE [RG-NG-1009]
[B] AMAMGLCLALCLUMTLUCM [RG-NG-1030]
INPUT: Could you point out whether the larger % Inhibition @ 100 uM belongs to A or to B ? Returns: label corresponding to the selected item.
OUTPUT: A
(A: 32.6%, B: 1.9%)

---

test system: miR-17; assay: microRNA polysome shift assay (miPSA) in kidney of wild type mice; assay type: in vivo, mouse; parameters: scale not given here; settings: single dose 30 mg/kg, seven days later
reported-property: miPSA Displacement Score, Mean
A bare number is all that is needed in reply.

These recorded examples may help you get a feel for the data.
{"sequence-input": "ASGSCMAFCFUFUMUSUS [RG-NG-1017]", "reported-property": "miPSA Displacement Score, Mean", "endpoint-result": 2.793}
{"sequence-input": "ASGSCMAFCFUFUMUSAS [RG-NG-1015]", "reported-property": "miPSA Displacement Score, Mean", "endpoint-result": 2.718}
{"sequence-input": "ASGSCMAFCFUFUMUSGS [RGLS4326, reference compound]", "reported-property": "miPSA Displacement Score, Mean", "endpoint-result": 2.362}
{"sequence-input": "ASCSAMAFUFGFCMASCS [RG5124, reference compound]", "reported-property": "miPSA Displacement Score, Mean", "endpoint-result": 0.5935}

Below: the item to evaluate.
Lab book: miPSA Displacement Score, Mean of ASGSCMAFCFUFUMUSCS [RG-NG-1016] noted as 1.134

---

test system: AMPA-R; assay: [3H]AMPA radioligand binding assay on rat brain synaptic membranes; details: Experiment #3, 100 uM
reported-property: % Inhibition @ 100 uM (%)

These recorded examples may help you get a feel for the data.
{"sequence-input": "ASGSCMAFCFUFUMUSGS [RGLS4326, reference compound]", "endpoint-result": 97.2}
{"sequence-input": "ASGSCSASCSUSUSUSGS [RG-NG-1001]", "endpoint-result": 96.6}

[a] AFGSCMAFCFUFUMUSGE [RG-NG-1023]
[b] ASGSCMAFCFUFUMTEGE [RG-NG-1024]
INPUT: Returns: the label, a or b , whose recorded % Inhibition @ 100 uM is the lower number. Returns: label corresponding to the selected item.
OUTPUT: b

---

test system: AMPA-R; test: [3H]AMPA radioligand binding assay on rat brain synaptic membranes; details: Experiment #3, 1 uM
reported-property: % Inhibition @ 1 uM (%)

These recorded examples may help you get a feel for the data.
{"sequence-input": "TEAASGSCMAFCFUFUMUSCS (TAAGCACUUUC; 2'-MOE at 1, cEt at 3, 4, 10, 11, 2'-O-methyl at 5, 9, 2'-fluoro at 6, 7, 8, other sugars and backbone not given here) [RG-NG-1021]", "target-or-system": "AMPA-R", "reported-property": "% Inhibition @ 1 uM", "unit-spec": "%", "endpoint-result": "−10.9"}
{"sequence-input": "ASGSCSASCSUSUSUSGS [RG-NG-1001]", "target-or-system": "AMPA-R", "reported-property": "% Inhibition @ 1 uM", "unit-spec": "%", "endpoint-result": 84.8}
{"sequence-input": "ASCSTGSUSAASGSCMAFCFUFUMUSCS (ACTGUAAGCACUUUC; cEt at 1, 2, 4, 5, 7, 8, 14, 15, 2'-O-methyl at 9, 13, 2'-fluoro at 10, 11, 12, other sugars and backbone not given here) [RG-NG-1019]", "target-or-system": "AMPA-R", "reported-property": "% Inhibition @ 1 uM", "unit-spec": "%", "endpoint-result": 17.2}
{"sequence-input": "AECETEGSTEAASGSCMAFCFUFUMUSCS (ACTGTAAGCACUUUC; S-cEt, 2'-MOE, 2'-F, 2'-OMe modifications; modified_base 3 OTHER; thymine; modified_base 5 OTHER; misc_feature 1..15 Synthetic: RG-NG-1018; modified_base 1..3 OTHER; 2'-O-methoxyethyl nucleoside; modified_base 4 OTHER; S-constrained ethyl nucleoside; modified_base 7..8 OTHER; modified_base 9 OTHER; 2'-O-methyl nucleoside; modified_base 10..12 OTHE)", "target-or-system": "AMPA-R", "reported-property": "% Inhibition @ 1 uM", "unit-spec": "%", "endpoint-result": 8.1}
{"sequence-input": "TEGSTEAASGSCMAFCFUFUMUSCS (TGTAAGCACUUUC; anti-miR; 2'-MOE at 1, 3, cEt at 2, 5, 6, 12, 13, 2'-O-methyl at 7, 11, 2'-fluoro at 8, 9, 10, other sugars and backbone not given here) [RG-NG-1020]", "target-or-system": "AMPA-R", "reported-property": "% Inhibition @ 1 uM", "unit-spec": "%", "endpoint-result": 6.6}

[P] ASGSCMAFCFUFUMUSGE [RG-NG-1025]
[Q] ASGSCMAFCFUFUMTEGE [RG-NG-1024]
INPUT: Returns: the label, P or Q , whose recorded % Inhibition @ 1 uM is the lower number. Returns: label corresponding to the selected item.
OUTPUT: Q
(Q: −4.7%, P: 36.5%)

---

tested on: AMPA-R; test: [3H]AMPA radioligand binding assay on rat brain synaptic membranes; conditions: Table 8 (3′-terminal nucleobase/sugar variants), 100 uM;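 note: competition binding in which test compounds at rising concentrations displace [3H]AMPA from AMPA-R on rat brain synaptic membranes, with reduced bound radioligand as read-out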
e = 2'-O-(2-methoxyethyl) (MOE); k = constrained ethyl (cEt); d = 2'-deoxy (DNA); m = 2'-O-methyl; f = 2'-fluoro
reported-property: % Inhibition @ Concentration 100 uM (%)

These recorded examples may help you get a feel for the data.
{"sequence-input": "ASCSAMAFUFGFCMASCS [RG5124, reference compound]", "% Inhibition @ Concentration 100 uM / %": 10.1}
{"sequence-input": "CETEGSCEAECETEGSTEADASGSCMAFCFUFUMUSGS (CTGCACTGTAAGCACUUUG; sugars from the 5' end eekeeeekedkkmfffmkk, backbone and methylation of C not given here) [RG-NG-1040]", "% Inhibition @ Concentration 100 uM / %": 64.1}

[I] ASGSCMAFCFUFUMUSGM [RG-NG-1034]
[II] ASGSCMAFCFUFUMUSDM [RG-NG-1037]
INPUT: Could you point out whether the larger % Inhibition @ Concentration 100 uM belongs to I or to II ? Returns: label corresponding to the selected item.
OUTPUT: I
